Ref: paper PMC9951844

Assay Target: Delta spike (based on S-R/Wildtype spike) (SARS-CoV-2 Delta (B.1.617.2), L452R | T478K)
Property Measured: binding result

{"Binder": "YB13-281 (antibody, V domains shown) VH: EVQLVESGGGLVKPGGSLRLSCAASGFTFSSYSMNWVRQAPGKGLEWVSSISSSSSYIHYADSVKGRFTISRDNAKNSLYLQMNSLRAEDTAVYYCARVSSKDYYDRSGYLRGDYDYGMDVWGQGTTVTVSS VL: QSVLTQPPSVSGAPGQRVTISCTGNSSNIGAAYDVHWYQQLPGTAPKLLIYGNSNRPSGVPDRFSGSKSGTSASLAITGLQAEDEADYYCQSYDSSLSGVFGGGTKLTVL", "Result": "binds"}
{"Binder": "YB9-120 (antibody, V domains shown) VH: QVQLQESGPGLVKPSGTLSLTCAVSGGSIRTTKWWSWVRQPPGKGLEWIGEIHHGGNTNYNPSLKSRVTISVDKSKNQFSLKLTSVTAADTAVYYCARDGGGVGTPLEYWGQGTLVTVSS VL: QSGLTQPASVSGSPGQSITISCTGTISDVGAYNYVSWYQQHPGRAPKVVIYDVSERPSGTSNRFSGSKSGNTASLTISGLQAEDEADYYCSSFTNTTPVVFGGGTKLTVL", "Result": "binds"}
{"Binder": "YB13-208 (antibody, V domains shown) V domain 1: QITLKESGPTLVKPTQTLTLTCTFSGLSLSTSGVSVGWIRQPPGKAPEWLALIYWDDDKRYSPSLTSRLSITKDTSKNQVVLTMTNMDPVDTATYYCAHPRYYGDSSGYYWIWGQGTMVTVSS V domain 2: SYELTQPPSVSVSPGQTARITCSGDALPKQYAYWYQQKPGQAPVVVMYKTSERPSGIPERFSGSSSGTTVTLTISGVQAEDEADYYCQSADSSGFYVFGTGTQVTVL", "Result": "binds"}
